PROTOCOL DETAILS: Solubility in organic solvent, visual dissolution
Assay type: physicochemical
CONDITION LABEL: acetone, ultrasonic stirring
# Solubility Acetone >= 20 wt % gives class 1, anything below gives class 0

Answered cases to consult:
COMPOUND	ASSIGNED CLASS
C=CC(=O)OCCn1c2ccccc2c2c3ccccc3ccc21	class 0
C=CC(=O)Oc1cc(Cn2c3ccc4ccccc4c3c3c4ccccc4ccc32)cc(OC(=O)C=C)c1	class 0
C=CC(=O)OCCn1c2ccccc2c2ccc3ccccc3c21	class 0
C=CC(=O)Oc1cc(OC(=O)C=C)cc(-n2c3ccc4ccccc4c3c3c4ccccc4ccc32)c1	class 0

In the following, a different compound is considered.
Exam item: Answer whether Solubility Acetone of C=CC(=O)OCCn1c2ccccc2c2ccccc21 [(11-1), acrylic acid 2-(9H-carbazol-9-yl) ethyl, reference compound] is greater than or equal to 20 wt %.
Marked response: class 1

###

PROTOCOL DETAILS: Refractive index of compound, Abbe refractometer, calibration curve extrapolated
Assay type: physicochemical
CONDITION LABEL: average refractive index to light of 589 nm, 25±1° C., acetone or chloroform solution, extrapolated to volume fraction 1
Recorded Refractive index, one value per entry.

COMPOUND	MEASURE NAME	VALUE
C=CC(=O)OCCOc1cc(Cn2c3ccc4ccccc4c3c3c4ccccc4ccc32)cc(OCCOC(=O)C=C)c1	Refractive index	1.71
C=CC(=O)OCCOc1cc(OCCOC(=O)C=C)cc(-n2c3ccccc3c3c4ccccc4ccc32)c1	Refractive index	1.69
C=CC(=O)OCC(Cn1c2ccc3ccccc3c2c2c3ccccc3ccc21)OC(=O)C=C (centres unmarked)	Refractive index	1.72

Exam item: Name the recorded Refractive index for C=CC(=O)OCCn1c2ccccc2c2c3ccccc3ccc21 .
Marked response: 1.74

Exam item: Name the recorded Refractive index for C=CC(=O)OCCn1c2ccccc2c2ccccc21 [(11-1), acrylic acid 2-(9H-carbazol-9-yl) ethyl, reference compound] .
Marked response: 1.68

Exam item: Name the recorded Refractive index for C=CC(=O)Oc1cc(CCn2c3ccc4ccccc4c3c3c4ccccc4ccc32)cc(OC(=O)C=C)c1 .
Marked response: 1.73

Exam item: Name the recorded Refractive index for C=C(C)C(=O)OCC(Cn1c2ccc3ccccc3c2c2c3ccccc3ccc21)OC(=O)C(=C)C (centres unmarked) .
Marked response: 1.72

Exam item: Name the recorded Refractive index for C=CC(=O)OCCn1c2ccccc2c2ccc3ccccc3c21 .
Marked response: 1.74
